Molecular target: human ether-à-go-go-related gene (hERG) potassium channel (human, UniProt Q12809);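 note: peak tail current of the secondary pulse compared with the same well before compound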
Sequence (Q12809 whole entry, looked up): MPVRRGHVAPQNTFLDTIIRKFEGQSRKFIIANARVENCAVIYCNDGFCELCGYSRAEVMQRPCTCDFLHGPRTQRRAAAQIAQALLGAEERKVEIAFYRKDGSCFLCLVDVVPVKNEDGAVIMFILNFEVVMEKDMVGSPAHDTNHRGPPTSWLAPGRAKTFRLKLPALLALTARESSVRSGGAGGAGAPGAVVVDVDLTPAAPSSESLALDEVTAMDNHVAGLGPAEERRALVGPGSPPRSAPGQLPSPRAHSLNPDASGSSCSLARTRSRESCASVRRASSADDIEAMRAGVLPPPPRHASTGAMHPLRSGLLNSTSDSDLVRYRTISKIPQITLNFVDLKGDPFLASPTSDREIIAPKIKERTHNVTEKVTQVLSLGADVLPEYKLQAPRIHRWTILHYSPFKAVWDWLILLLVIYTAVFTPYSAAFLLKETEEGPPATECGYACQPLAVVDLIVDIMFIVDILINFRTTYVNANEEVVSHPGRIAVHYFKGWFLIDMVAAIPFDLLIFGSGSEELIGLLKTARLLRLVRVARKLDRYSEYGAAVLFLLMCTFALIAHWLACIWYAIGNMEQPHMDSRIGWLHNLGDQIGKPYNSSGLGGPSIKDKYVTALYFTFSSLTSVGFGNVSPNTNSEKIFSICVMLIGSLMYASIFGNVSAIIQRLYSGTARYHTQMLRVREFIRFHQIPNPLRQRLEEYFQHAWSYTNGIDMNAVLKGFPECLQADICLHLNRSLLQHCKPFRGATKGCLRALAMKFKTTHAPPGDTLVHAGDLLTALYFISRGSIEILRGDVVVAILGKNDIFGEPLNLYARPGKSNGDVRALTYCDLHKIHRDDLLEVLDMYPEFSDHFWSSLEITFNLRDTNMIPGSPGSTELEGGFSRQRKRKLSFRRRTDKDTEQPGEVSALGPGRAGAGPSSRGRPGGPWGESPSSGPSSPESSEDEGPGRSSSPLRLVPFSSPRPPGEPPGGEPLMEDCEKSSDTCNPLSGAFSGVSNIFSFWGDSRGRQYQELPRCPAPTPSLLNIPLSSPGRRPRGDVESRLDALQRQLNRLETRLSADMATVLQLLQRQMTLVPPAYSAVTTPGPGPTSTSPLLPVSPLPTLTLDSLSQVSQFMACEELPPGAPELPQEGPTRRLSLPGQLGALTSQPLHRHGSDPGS
Experiment: primary screen, population patch clamp on CHO cells stably expressing hERG; higher = less effect of the substance
Among all 310,000 compounds or so, about 14,000 (4.5%) showed an effect of 50% or more. The effect is printed as a negative number. The list comes from a sample in which strong results are over-represented; it also holds close analogues and randomly drawn compounds.
Param threshold (-30%) applies to hERG current change (%, negative = inhibition) at 10uM; output Yes when value >= threshold, No when value < threshold.

Entry `CCOc1ccc(OCCNC(=O)c2oc3ccccc3c2COC)cc1` : is its hERG current change (%, negative = inhibition) at 10uM no less than -30%?
No

Entry `Cc1c(C(N)=O)sc(N)c1C(=O)OC(C)C` : is its hERG current change (%, negative = inhibition) at 10uM no less than -30%?
Yes

Entry Cc1sc2ncnc(NCC(c3ccccc3)N(C)C)c2c1C (centres unmarked) : is its hERG current change (%, negative = inhibition) at 10uM no less than -30%?
No

Entry Cc1c(C)n(CC(O)CNCCO)c2ccccc12.O=C(O)C(=O)O (centres unmarked) : is its hERG current change (%, negative = inhibition) at 10uM no less than -30%?
Yes

Source of measurements: paper PMC4336329
